# credit: ChEMBL document CHEMBL2401654

Target: hERG (KCNH2) (Homo sapiens)
Sequence (Q12809 whole entry): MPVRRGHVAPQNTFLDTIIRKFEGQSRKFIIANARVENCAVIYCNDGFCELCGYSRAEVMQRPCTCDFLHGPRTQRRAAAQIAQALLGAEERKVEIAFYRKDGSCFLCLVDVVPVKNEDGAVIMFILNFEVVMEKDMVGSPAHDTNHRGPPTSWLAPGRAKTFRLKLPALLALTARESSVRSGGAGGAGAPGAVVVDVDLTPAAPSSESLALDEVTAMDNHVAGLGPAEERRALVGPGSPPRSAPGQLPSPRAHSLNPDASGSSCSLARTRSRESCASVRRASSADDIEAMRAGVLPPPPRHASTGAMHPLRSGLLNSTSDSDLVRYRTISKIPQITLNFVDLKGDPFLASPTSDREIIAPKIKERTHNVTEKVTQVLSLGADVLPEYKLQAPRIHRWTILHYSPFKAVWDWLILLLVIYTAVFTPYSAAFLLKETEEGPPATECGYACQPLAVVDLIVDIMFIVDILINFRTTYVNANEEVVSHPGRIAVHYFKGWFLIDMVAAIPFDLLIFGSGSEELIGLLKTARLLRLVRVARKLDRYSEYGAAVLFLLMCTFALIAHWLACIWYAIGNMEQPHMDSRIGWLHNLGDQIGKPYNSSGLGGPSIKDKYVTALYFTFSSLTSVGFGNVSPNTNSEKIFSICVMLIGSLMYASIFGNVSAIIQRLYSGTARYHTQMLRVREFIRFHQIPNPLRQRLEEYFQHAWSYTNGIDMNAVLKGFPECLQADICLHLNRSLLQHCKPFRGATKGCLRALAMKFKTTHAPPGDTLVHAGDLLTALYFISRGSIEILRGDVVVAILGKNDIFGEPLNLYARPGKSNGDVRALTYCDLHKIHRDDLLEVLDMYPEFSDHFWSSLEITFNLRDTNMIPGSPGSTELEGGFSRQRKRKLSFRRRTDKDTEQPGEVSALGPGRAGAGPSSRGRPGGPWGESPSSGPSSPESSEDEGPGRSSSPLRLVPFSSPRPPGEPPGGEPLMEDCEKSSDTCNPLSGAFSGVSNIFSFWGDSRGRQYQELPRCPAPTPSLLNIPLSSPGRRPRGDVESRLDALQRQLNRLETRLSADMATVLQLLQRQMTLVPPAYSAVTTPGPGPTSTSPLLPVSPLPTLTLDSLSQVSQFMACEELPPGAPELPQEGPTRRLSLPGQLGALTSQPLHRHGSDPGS
Experiment: Inhibition of human ERG transfected in CHO cells at 1 uM by patch clamp assay relative to control
Type: cell-based
Details: CHO cells transfected with human ERG
Answer each item with its documented inhibition at 1 µM.
Note: unit % is implicit; provide only the numeric part.

Q. Assign inhibition at 1 µM to the following record: Cc1cc(N2CC[C@H](N3CCC[C@H]3C)C2)ccc1NC(=O)c1cc(F)ccc1C
A. 43

Q. Assign inhibition at 1 µM to the following record: Cc1cc(N2CC[C@H](N3CCC[C@@H]3C)C2)ccc1NC(=O)c1cc(F)ccc1C
A. 43.4

Q. Assign inhibition at 1 µM to the following record: Cc1cc(N2CC[C@@H](N3CCC[C@H]3C)C2)ccc1NC(=O)c1cc(F)ccc1C
A. 33.7

Q. Assign inhibition at 1 µM to the following record: Cc1cc(N2CC[C@@H](N3CCC[C@@H]3C)C2)ccc1NC(=O)c1cc(F)ccc1C
A. 38.8
